Reported pIC50 by item:
# TEST_SYSTEM: KRAS Q61H (Homo sapiens, UniProt P01116+P62937, Q61H)
# Sequence (P01116 1-169 isoform P01116-2 Q61H limits assumed, one chain of several): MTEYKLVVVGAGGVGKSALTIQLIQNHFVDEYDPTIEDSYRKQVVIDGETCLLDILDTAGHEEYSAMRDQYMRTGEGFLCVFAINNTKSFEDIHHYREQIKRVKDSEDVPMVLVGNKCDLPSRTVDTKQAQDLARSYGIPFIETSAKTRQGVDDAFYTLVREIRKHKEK
# TEST_DESCRIPTION: Disruption of BRAF RBD interaction with Ras (FRET / MOA assay, with Cyclophilin A)
# Assay type: biochemical
# MEASUREMENT_PARAMETERS: KRAS Q61H; read-out: KRAS Q61H FRET data IC50
pIC50: −log10 of the molar value.
MEASURE: pIC50

>  <COMPOUND>
C=CC(=O)N1CC[C@H](C(=O)N(C)[C@H](C(=O)N[C@H]2Cc3cc(O)cc(c3)-c3ccc4c(c3)c(c(-c3cccnc3)n4C(C)(C)C#N)CC(C)(C)COC(=O)[C@@H]3CCCN(N3)C2=O)C(C)C)C1 [Example A074]

>  <MEASURE>
pIC50

>  <OBSERVED>
6.00 to 7.00

$$$$
>  <COMPOUND>
CCn1c(-c2cccnc2[C@H](C)OC)c2c3cc(ccc31)-c1csc(n1)C[C@H](NC(=O)[C@H](C(C)C)N(C)C(=O)N1CC([C@H](C)NC)C1)C(=O)N1CCC[C@H](N1)C(=O)OCC(C)(C)C2 [Example A535]

>  <MEASURE>
pIC50

>  <OBSERVED>
6.00 to 7.00

$$$$
>  <COMPOUND>
CCn1c(-c2cccnc2[C@H](C)OC)c2c3cc(ccc31)-c1csc(n1)C[C@H](NC(=O)[C@H](C(C)C)N(C)C(=O)N1CC(CO)C1)C(=O)N1CCC[C@H](N1)C(=O)OCC(C)(C)C2 (atropisomer, axis not shown) [Example A356]

>  <MEASURE>
pIC50

>  <OBSERVED>
7.00 to 8.00

$$$$
>  <COMPOUND>
CCn1c(-c2cccnc2[C@H](C)OC)c2c3cc(ccc31)-c1csc(n1)C[C@H](NC(=O)C1(F)COC1)C(=O)N1CCC[C@H](N1)C(=O)OCC(C)(C)C2 [Example A320]

>  <MEASURE>
pIC50

>  <OBSERVED>
6.00 to 7.00

$$$$

* * *

# TEST_SYSTEM: NRAS G12C (Homo sapiens, UniProt P01111+P62937, G12C)
# Sequence (P01111 whole entry G12C): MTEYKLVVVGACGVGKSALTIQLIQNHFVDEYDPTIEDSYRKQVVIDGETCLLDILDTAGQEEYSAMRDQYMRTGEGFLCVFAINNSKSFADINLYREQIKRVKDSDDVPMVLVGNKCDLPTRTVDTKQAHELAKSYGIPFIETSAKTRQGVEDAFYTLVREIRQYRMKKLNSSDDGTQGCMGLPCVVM
# Sequence (P62937 whole entry): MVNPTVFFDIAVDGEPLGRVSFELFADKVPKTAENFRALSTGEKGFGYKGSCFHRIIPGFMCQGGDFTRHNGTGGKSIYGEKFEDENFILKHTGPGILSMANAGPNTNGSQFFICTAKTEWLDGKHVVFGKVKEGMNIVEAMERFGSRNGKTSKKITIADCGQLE
# TEST_DESCRIPTION: Ras-Raf disruption / FRET / MOA assay (BRAF RBD)
# Assay type: biochemical
# MEASUREMENT_PARAMETERS: NRAS G12C; read-out: NRAS G12C FRET data IC50
pIC50: −log10 of the molar value.

>  <COMPOUND>
CCn1c(-c2cccnc2[C@H](C)OC)c2c3cc(ccc31)-c1cc(O)cc(c1)C[C@H](NC(=O)[C@H](C(C)C)N(C)C(=O)N1CCN(C(=O)[C@@H]3CN3)C(=O)C1)C(=O)N1CCC[C@H](N1)C(=O)OCC(C)(C)C2 [Example 194]

>  <pIC50>
6.00 to 7.00

$$$$
>  <COMPOUND>
CCn1c(-c2cccnc2[C@H](C)OC)c2c3cc(ccc31)-c1csc(n1)C[C@H](NC(=O)[C@H](C(C)C)N(C)C(=O)N(C)[C@H]1CCN(C(=O)[C@@H]3CN3)C1)C(=O)N1CCC[C@H](N1)C(=O)OCC(C)(C)C2 (atropisomer, axis not shown) [Example 310]

>  <pIC50>
6.00 to 7.00

$$$$
>  <COMPOUND>
CCn1c(-c2cccnc2[C@H](C)OC)c2c3cc(ccc31)-c1csc(n1)C[C@H](NC(=O)[C@H](C(C)C)N(C)C(=O)N1CCN(C(=O)[C@@H]3CN3)CC1)C(=O)N1CCC[C@H](N1)C(=O)OCC(C)(C)C2 [Example 168]

>  <pIC50>
7.00 to 8.00

$$$$
>  <COMPOUND>
CCn1c(-c2cccnc2[C@H](C)OC)c2c3cc(ccc31)-c1cc(O)cc(c1)C[C@H](NC(=O)[C@H](C(C)C)N(C)C(=O)N1CC(NC(=O)[C@H]3CN3)C1)C(=O)N1CCC[C@H](N1)C(=O)OCC(C)(C)C2 (atropisomer, axis not shown) [Example 189]

>  <pIC50>
7.00 to 8.00

$$$$

* * *

Below, each entry is listed alongside its reported pIC50.
# TEST_SYSTEM: KRAS G12S (Homo sapiens, UniProt P01116+P62937, G12S)
# Sequence (P01116 1-169 isoform P01116-2 G12S limits assumed, one chain of several): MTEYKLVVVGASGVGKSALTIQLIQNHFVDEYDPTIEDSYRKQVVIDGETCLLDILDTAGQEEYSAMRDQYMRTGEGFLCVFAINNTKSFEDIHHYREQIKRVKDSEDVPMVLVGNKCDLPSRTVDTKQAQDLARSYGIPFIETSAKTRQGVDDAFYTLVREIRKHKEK
# TEST_DESCRIPTION: Disruption of BRAF RBD interaction with Ras (FRET / MOA assay, with Cyclophilin A)
# Format: biochemical
# MEASUREMENT_PARAMETERS: read-out: KRAS G12S FRET data, IC50
pIC50: −log10 of the molar value.
MEASURE: pIC50

>  <MOLECULE>
CCn1c(-c2ccccc2CN(C)C)c2c3cc(ccc31)-c1cc(O)cc(c1)C[C@H](NC(=O)[C@H](C(C)C)N(C)C(=O)c1ccc(NC(=O)/C=C/CN(C)C)cn1)C(=O)N1CCC[C@H](N1)C(=O)OCC(C)(C)C2

>  <OBSERVED>
< 5.00

$$$$
>  <MOLECULE>
C=CC(=O)N1CC[C@@H](N(C)C(=O)N(C)[C@H](C(=O)N[C@H]2Cc3nc(cs3)-c3ccc4c(c3)c(c(-c3cccnc3[C@H](C)OC)n4CC)CC(C)(C)COC(=O)[C@@H]3CCCN(N3)C2=O)C(C)C)C1

>  <OBSERVED>
6.00 to 7.00

$$$$
>  <MOLECULE>
CCn1c(-c2cccnc2[C@H](C)OC)c2c3cc(ccc31)-c1csc(n1)C[C@H](NC(=O)[C@H](C(C)C)N(C)C(=O)N1CC(OC)C1)C(=O)N1CC[C@H](C)[C@H](N1)C(=O)OCC(C)(C)C2

>  <OBSERVED>
5.00 to 6.00

$$$$
>  <MOLECULE>
CCn1c(-c2cccnc2[C@H](C)OC)c2c3cc(ccc31)-c1nc(cs1)C[C@H](NC(=O)[C@H](C(C)C)N(C)C(C)=O)C(=O)N1CCC[C@H](N1)C(=O)OCC(C)(C)C2

>  <OBSERVED>
5.00 to 6.00

$$$$
>  <MOLECULE>
CCn1c(-c2cccnc2[C@H](C)OC)c2c3cc(ccc31)-c1csc(n1)C[C@H](NC(=O)C1(F)COC1)C(=O)N1CCC[C@H](N1)C(=O)OCC(C)(C)C2

>  <OBSERVED>
6.00 to 7.00

$$$$
>  <MOLECULE>
CCn1c(-c2cccnc2COC)c2c3cc(ccc31)-c1cc(O)cc(c1)C[C@H](NC(=O)[C@@H](C(C)C)N(C)C(=O)[C@H]1CCN(C(=O)C#CC(C)N3CCOCC3)C1)C(=O)N1CCC[C@H](N1)C(=O)OCC(C)(C)C2 (some centres unmarked)

>  <OBSERVED>
< 5.00

$$$$
>  <MOLECULE>
CCn1c(-c2cccnc2[C@H](C)OC)c2c3cc(ccc31)-c1cc(O)cc(c1)C[C@H](NC(=O)C(C1CC1)C1CC1)C(=O)N1CCC[C@H](N1)C(=O)OCC(C)(C)C2

>  <OBSERVED>
6.00 to 7.00

$$$$
>  <MOLECULE>
C=CC(=O)N1CC[C@H](C(=O)N(C)[C@H](C(=O)N[C@H]2Cc3cc(O)cc(c3)-c3ccc4c(c3)c(c(-c3ccc(C5CCN(C)CC5)cc3)n4CC)CC(C)(C)COC(=O)[C@@H]3CCCN(N3)C2=O)C(C)C)C1

>  <OBSERVED>
5.00 to 6.00

$$$$
>  <MOLECULE>
CCn1c(-c2cccnc2[C@H](C)OC)c2c3cc(ccc31)-c1csc(n1)C[C@H](NC(=O)[C@H](C1CCCC1)N(C)C(=O)N1CCN(C)CC1)C(=O)N1CCC[C@H](N1)C(=O)OCC(C)(C)C2

>  <OBSERVED>
6.00 to 7.00

$$$$
>  <MOLECULE>
C=CC(=O)N1CC[C@H](C(=O)N(C)[C@H](C(=O)N[C@H]2Cc3cc(O)cc(c3)-c3ccc4c(c3)c(c(-c3cccnc3)n4C3CC3)CC(C)(C)COC(=O)[C@@H]3CCCN(N3)C2=O)C(C)C)C1

>  <OBSERVED>
< 5.00

$$$$
>  <MOLECULE>
CCn1c(-c2cccnc2[C@H](C)OC)c2c3cc(ccc31)-c1cc(O)cc(c1)C[C@H](NC(=O)[C@H](C(C)C)N(C)C(=O)C1(O)CC1)C(=O)N1CCC[C@H](N1)C(=O)OCC(C)(C)C2 (atropisomer, axis not shown)

>  <OBSERVED>
6.00 to 7.00

$$$$
>  <MOLECULE>
CCn1c(-c2cccnc2[C@H](C)OC)c2c3cc(ccc31)-c1cc(O)cc(c1)C[C@H](NC(=O)[C@H](C(C)C)N(C)C(=O)[C@@H]1CNC[C@@H]1C)C(=O)N1CCC[C@H](N1)C(=O)OCC(C)(C)C2

>  <OBSERVED>
7.00 to 8.00

$$$$
>  <MOLECULE>
CCn1c(-c2cc(N3CCN(C)CC3)cnc2[C@H](C)OC)c2c3cc(ccc31)-c1csc(n1)C[C@H](NC(=O)[C@H](C(C)C)N(C)C(=O)N1CCC13CCN(C)CC3)C(=O)N1CCC[C@H](N1)C(=O)OCC(C)(C)C2 (atropisomer, axis not shown)

>  <OBSERVED>
7.00 to 8.00

$$$$
>  <MOLECULE>
C=CC(=O)N1CCOC2(CCN(C(=O)N(C)[C@H](C(=O)N[C@H]3Cc4cccc(c4)-c4ccc5c(c4)c(c(-c4cccnc4[C@H](C)OC)n5CC(F)(F)F)CC(C)(C)COC(=O)C4CCCN(N4)C3=O)C(C)C)CC2)C1 (some centres unmarked)

>  <OBSERVED>
6.00 to 7.00

$$$$
>  <MOLECULE>
CCn1c(-c2cccnc2[C@H](C)OC)c2c3cc(ccc31)-c1csc(n1)C[C@H](NC(=O)[C@H](C(C)C)N(C)C(=O)N1CC[C@]13CCCNC3)C(=O)N1CCC[C@H](N1)C(=O)OCC(C)(C)C2

>  <OBSERVED>
6.00 to 7.00

$$$$
>  <MOLECULE>
CCn1c(-c2cnccc2COC)c2c3cc(ccc31)-c1cc(O)cc(c1)C[C@H](NC(=O)[C@H]([C@@H](C)OC)N(C)C(C)=O)C(=O)N1CCC[C@H](N1)C(=O)OCC(C)(C)C2

>  <OBSERVED>
6.00 to 7.00

$$$$
>  <MOLECULE>
C=CC(=O)N1CC[C@H](C(=O)N(C)[C@H](C(=O)N[C@H]2Cc3cc(O)cc(c3)-c3ccc4c(c3)c(c(-c3ccccc3CCOC)n4C(C)(C)C#N)CC(C)(C)COC(=O)[C@@H]3CCCN(N3)C2=O)C(C)C)C1

>  <OBSERVED>
6.00 to 7.00

$$$$
